growth values, listed per item
# Test system: TK-10 renal
# experiment-summary: NCI-60 one-dose screen, 48 h (100 = growth as untreated, 0 = no growth, -100 = all killed)
# condition-summary: 10 µM unless noted
This is part of a sample that, as a whole, favours compounds with a hit. Of some 83,000 tested, about 20% had one in any assay. Calls of active or inactive are those of the source. The calls were made as follows: active = growth percent below 10; inactive = the rest.

>>> print(df.to_string())
                                   compound  recorded_metric           reading
0  COC1=CC(c2ccc[nH]2)=N/C1=C\c1[nH]c(C)c(CC(=O)OCc2ccccc2)c1CCC(=O)OCc1ccccc1           growth   -21.5% (active)
1  Cc1ccc2c(c1)=C/C(=C\c1cc(-c3ccccc3)oc1O)C(=O)N=2           growth  97.6% (inactive)

What value of growth has been recorded for this entry: "CCCOC(=O)Nc1nc2ccc(SCC(C)C)cc2s1"
50.4% (inactive)

What value of growth has been recorded for this entry: "CSc1nc2ncc([N+](=O)[O-])c(=O)n2[nH]1"
97.8% (inactive)
